Origin of the recorded values: patent US11021493B2

# assay.system: human recombinant BACE2 (Homo sapiens (Human), UniProt Q9Y5Z0)
# Sequence (Q9Y5Z0 63-518): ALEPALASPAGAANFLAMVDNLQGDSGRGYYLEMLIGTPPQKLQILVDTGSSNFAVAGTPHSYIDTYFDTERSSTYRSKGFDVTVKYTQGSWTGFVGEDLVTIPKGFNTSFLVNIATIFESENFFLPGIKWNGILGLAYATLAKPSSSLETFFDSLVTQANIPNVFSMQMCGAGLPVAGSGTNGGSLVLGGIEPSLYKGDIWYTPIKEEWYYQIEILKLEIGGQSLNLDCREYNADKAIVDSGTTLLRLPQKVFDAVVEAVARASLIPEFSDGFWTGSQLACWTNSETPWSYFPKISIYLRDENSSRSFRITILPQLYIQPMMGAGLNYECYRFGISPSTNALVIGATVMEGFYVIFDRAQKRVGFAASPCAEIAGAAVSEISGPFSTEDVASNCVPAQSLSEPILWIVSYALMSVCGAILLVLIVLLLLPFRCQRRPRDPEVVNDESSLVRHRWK
# assay.explanation: In vitro enzymatic BACE2 FRET assay
# particulars: read-out: BACE2 Enzyme IC50
quantity.measured: IC50 (nM)

The following compounds have reported results that may help.
CC#CCOc1cnc(/C(F)=C/c2ccc(F)c([C@]3(C)CS(=O)(=O)C(C)(C)C(N)=N3)c2)cn1 ... 34
CN1C(N)=N[C@](C)(c2cc(/C=C(\F)c3cnc(C#N)cn3)ccc2F)C2(CC2)S1(=O)=O ... 184
Cc1noc(COc2cnc(/C(F)=C/c3ccc(F)c([C@@]4(C)N=C(N)N(C)S(=O)(=O)C45CC5)c3)cn2)n1 ... 2630
C[C@]1(c2cc(/C=C(\F)c3cnc(OCC(F)(F)C(F)F)cn3)ccc2F)N=C(N)[C@@]2(CF)CC[C@@H]1S2(=O)=O ... 258
CN1C(N)=N[C@](C)(c2cc(/C=C(\F)c3cnc(OCC4COC4)cn3)ccc2F)CS1(=O)=O ... 217

P. CC#CCOc1cnc(/C(F)=C/c2ccc(F)c([C@]3(CF)CS(=O)(=O)C(C)(C)C(N)=N3)c2)cn1
Q. CN1C(N)=N[C@](C)(c2cc(/C=C(\F)c3cnc(C#N)cn3)ccc2F)C(C)(C)S1(=O)=O
Return label of the item with the larger IC50. Candidates: P , Q . When you have decided, please share the label of that item.
P
(P: 181 nM, Q: 87 nM)
